testSummary: Human HepG2 cell viability assay in 384 well format
Format: toxicity, cell-based
Set-up: dose 125 nL, time 70.5 hour; concentration not given beside the values
measurementSetup: HepG2 cells, read-out: Inhibition
endpointName: cytotoxicity at 70.5 h (%)

INSERT INTO assay_data (compound, endpointname, valueobserved) VALUES
  ('O=C(O)C1(Cc2cc(-c3ccc(F)cc3F)no2)CCOCC1', 'cytotoxicity at 70.5 h', 20.5),
  ('CCN(Cc1ccc2c(c1)OCO2)Cc1nc(C)no1', 'cytotoxicity at 70.5 h', -20.4),
  ('CNS(=O)(=O)c1ccccc1N1CCN(C(=O)NC(C)C)CC1', 'cytotoxicity at 70.5 h', -5.21),
  ('Cc1cc(CN(C2CC2)C(C)C(C)C)no1 (centres undefined)', 'cytotoxicity at 70.5 h', -2.85),
  ('Cc1cc(NC(=O)NCc2nncn2C)ccc1OC(C)C', 'cytotoxicity at 70.5 h', 22.5),
  ('CN(c1ccccc1C(=O)O)S(=O)(=O)c1cccc2cccnc12', 'cytotoxicity at 70.5 h', -6.45),
  ('Cc1ccc(Cn2nc(C)c3c(C(=O)O)c(Cl)c(C4CC4)nc32)cc1', 'cytotoxicity at 70.5 h', -4.45),
  ('O=C(N[C@@H]1CC[C@@H](N2CCOCC2)[C@@H]1O)c1cnn2cccnc12', 'cytotoxicity at 70.5 h', 21.8),
  ('Cc1cc(NC(=O)NCC(O)c2ccc(Cl)cc2Cl)n(C)n1 (centres undefined)', 'cytotoxicity at 70.5 h', -11.8),
  ('OC1(CNc2ccc(Br)cn2)CCOCC1', 'cytotoxicity at 70.5 h', -2.5),
  ('O=C(c1n[nH]cc1Br)N1CCOCC1', 'cytotoxicity at 70.5 h', -4.31),
  ('CC(=O)N1CCCC2(CCC(=O)N2Cc2cccnc2)C1 (centres undefined)', 'cytotoxicity at 70.5 h', 30.1),
  ('O=C(CCOc1ccccc1)N1CCCC(n2cncn2)C1 (centres undefined)', 'cytotoxicity at 70.5 h', 2.02),
  ('Cn1nc(C(=O)NCCc2ccc(OC3CCCC3)cc2)ccc1=O', 'cytotoxicity at 70.5 h', 12.1),
  ('Cc1cc2n(n1)CC(CNC1CCN(C(=O)C3CC3)CC1)CN2 (centres undefined)', 'cytotoxicity at 70.5 h', 16.7),
  ('CCOCC1CN(C(=O)COc2ccccc2)Cc2cn(C)nc21 (centres undefined)', 'cytotoxicity at 70.5 h', -4),
  ('CCCS(=O)(=O)C(C)C(=O)Nc1ccc2oc(C3CC3)nc2c1 (centres undefined)', 'cytotoxicity at 70.5 h', -2.1),
  ('Cn1nc(CN2CCCCC2)c2c1CN(C(=O)c1cccc(Cl)c1)C2', 'cytotoxicity at 70.5 h', 40.4),
  ('Cc1ccccc1C1(C(=O)NCCN2CCOCC2)CCOCC1', 'cytotoxicity at 70.5 h', -9.98),
  ('N#Cc1ccc(CNCCS(=O)(=O)N2CCc3ccccc32)cc1', 'cytotoxicity at 70.5 h', -10.2),
  ('O=C(O)CCn1ccc2cc(Br)ccc21', 'cytotoxicity at 70.5 h', 9.71),
  ('COC(=O)NCC(=O)NC(c1ccc(Cl)cc1)C(F)(F)F (centres undefined)', 'cytotoxicity at 70.5 h', -8.75),
  ('Cc1ccc(C(=O)N(C)Cc2cc(C)on2)cn1', 'cytotoxicity at 70.5 h', -2.86),
  ('Cc1nccc([C@H]2C[C@@H]3CCN(C(=O)c4c(C)noc4C)C[C@H]3O2)n1', 'cytotoxicity at 70.5 h', 7.48);

The values you see were collected from ChEMBL document CHEMBL3507680.
